Taken from PubChem BioAssay (NCATS).

study.conditions: Ebola virus entry assay, green fluorescence channel
Measured potencies and affinities stand elsewhere.
Hi, to clarify the labels: MET covers efficacy from -20% upward, NOT MET covers anything below -20%.

Check the entry O=C1CC[C@H](C(=O)N2CCCCC2)N1 : does efficacy equal or exceed -20%? MET

Quick check, efficacy >= -20%? CCCCOC(=O)c1ccc(O)cc1 NOT MET

Threshold query (efficacy >= -20%) on CCO/C([O-])=N/c1c[n+](N2CCOCC2)no1 NOT MET

Could you tell me if the measured efficacy of COc1ccc(C(=O)c2ccccc2)c(O)c1 reaches -20% or more? MET

Say whether CN[C@@H]1[C@@H](O)[C@@H](O[C@@H]2[C@H](O)[C@H](O[C@H]3OC(CN)=CC[C@H]3N)[C@@H](N)C[C@H]2N)OCC1(C)O (stereo partly specified) shows efficacy of -20% or more. MET

###

Tested on: HeLa
measurement.description: Primary qHTS to identify gynecologic anti-cancer compounds using libraries of approved drugs and bioactive compounds (AID 1345084); note: % is set by controls: 0 for no effect and ±100 for the full control effect; nearly all actives have a fitted effect of over 55% in size
study.conditions: Gynecologic cancer cell panel viability, ATPlite luminescence, 48 h; series mostly up to 57.5 µM
Results filed as inconclusive are left out. The source made the active and inactive calls. Calls follow the shape of the dose curve; as a rule, active = well fitted cell-killing curve with a large enough effect; inconclusive = small, poorly fitted or top-dose-only effect, or effect the other way; inactive = flat fitted curve, though single readings scatter.
assay.metric: outcome

// solved cases for outcome follow
molecule | outcome
Nc1ccccc1C(=O)O | inactive
CCOC(=O)CC(SP(=S)(OC)OC)C(=O)OCC (stereo unspecified) | inactive
CCC(C)C(C)(COC(N)=O)COC(N)=O (stereo unspecified) | inactive
CCCN(CCC)C(=O)Cc1c(-c2ccc(Cl)cc2)nc2ccc(Cl)cn12 | inactive
Clc1ccccc1N1CCNCC1 | inactive
CCOP(=S)(OCC)Oc1ccc2c(C)c(Cl)c(=O)oc2c1 | inactive

Name the recorded outcome for C#C[C@]1(O)CC[C@H]2[C@@H]3CCC4=CC(=O)CC[C@]4(C)[C@H]3CC[C@@]21C . inactive

What does the record list as outcome for CC(C)(C)NCC(O)c1cc(Cl)c(N)c(C(F)(F)F)c1 (stereo unspecified) ? inactive

###

measurement.description: qHTS of pediatric cancer cell lines to identify multiple opportunities for drug repurposing: Primary screen for NB-EBc1 cells (AID 1347095)
study.conditions: NB-EBc1 neuroblastoma viability, CellTiter-Glo luminescence, 48 h; series mostly up to 46 µM
Inconclusive results are not listed. The source made the active and inactive calls. The call rests on the fitted dose curve; in most records, active means well fitted cell-killing curve with a large enough effect; inconclusive means small, poorly fitted or top-dose-only effect; inactive means no such curve, though single readings can be large or run the other way.
Your response should consist of one outcome taken from True (active), False (inactive)

Fill in: this test's call for O=c1oc2ccccc2c(O)c1Cc1c(O)c2ccccc2oc1=O is ___ True

# outcome recorded in this test, key = CC(NC(C)(C)C)C(=O)c1cccc(Cl)c1 (configuration not stated) False

Please let me know the test result on file for CN1C(=O)NC(=O)C(C)(C2=CCCCC2)C1=O (configuration not stated) . False

Status in this test for Cc1ncsc1CCCl ? False

Would you mind telling me which call this test gave Nc1ccccc1C(=O)O ? False

Record request — test call for CCN[C@@H](C)Cc1cccc(C(F)(F)F)c1 False

How did this test come out for CN1CCC(O)(c2ccc(F)cc2)C(C(=O)c2ccc(F)cc2)C1 (configuration not stated) ? False

###

study.conditions: Ebola virus entry assay, ratio channel
Calls of active or inactive are those of the source.
Valid outcomes are listed here; reply with one: 1 = active, -1 = inactive

What did the test return for CC(C)C[C@H](NC(=O)CNC(=O)[C@H](Cc1ccc(O)cc1)NC(=O)[C@H](CO)NC(=O)[C@H](Cc1c[nH]c2ccccc12)NC(=O)[C@H](Cc1cnc[nH]1)NC(=O)[C@@H]1CCC(=O)N1)C(=O)N[C@@H](CCCN=C(N)N)C(=O)N1CCC[C@H]1C(=O)NCC(N)=O (stereo in doubt) ? -1

GET /call?item= CCCCCCCCCCC[C@@H](C[C@@H]1OC(=O)[C@H]1CCCCCC)OC(=O)[C@H](CC(C)C)NC=O returns the recorded outcome of this test. -1

Record request — test call for CCCCC(=O)OCC(=O)[C@H]1[C@H](C)C[C@H]2[C@@H]3C[C@H](F)C4=CC(=O)C=C[C@]4(C)[C@@]3(F)[C@@H](O)C[C@@]21C -1

// param item: COc1cc(C=C2CCC/C(=C\c3ccc(O)c(OC)c3)C2=O)ccc1O ; yields the recorded call 1

Could you please tell me the result logged for Cc1ccc(C(C)C)c(O)c1 in this assay? -1

Per the assay record, what outcome was assigned to CCOc1nc2cccc(C(=O)O)c2n1Cc1ccc(-c2ccccc2-c2nn[nH]n2)cc1 ? -1

What is the recorded call for this molecule in the test? CC(C)(C)NC[C@H](O)COc1cccc2c1CCCC2=O -1

Please share the test call associated with Nc1ncn([C@H]2C[C@H](O)[C@@H](CO)O2)c(=O)n1 . -1

Can you look up the reported call for COCCc1ccccn1 for me? -1

Per the assay record, what outcome was assigned to CCC(C(=O)NC(=O)NC(C)=O)c1ccccc1 (stereo not given) ? -1

Lab log entry: Cc1cccc(C)c1OCC(=O)N[C@@H](Cc1ccccc1)[C@@H](O)C[C@H](Cc1ccccc1)NC(=O)[C@H](C(C)C)N1CCCNC1=O — outcome as called in the assay? -1

What did this assay record as the result for COc1cc2nc(Cl)nc(N)c2cc1OC ? -1

What did this assay record as the result for CC(NN)c1ccccc1 (stereo not given) ? -1

What call does the record list for CC1(C)O[C@@H]2C[C@H]3[C@@H]4CCC5=CC(=O)C=C[C@]5(C)[C@@H]4[C@@H](O)C[C@]3(C)[C@]2(C(=O)CO)O1 ? -1

// outcome(item) with item = NC(N)=NS(=O)(=O)c1ccc(N)cc1 -1

What is the recorded call for this molecule in the test? CC(C)N(CCC(C(N)=O)(c1ccccc1)c1ccccn1)C(C)C (stereo not given) -1

Could you check what this test reported for CC(Cc1ccccc1)N(C)Cc1ccco1 (stereo not given) ? -1

Tell me the recorded outcome of this test for O=C(O)Cc1cccc2ccccc12 . -1

So what was the verdict on CC(=O)NC1CCSC1=O (stereo not given) in this test? -1

What did the test return for CCN[C@H](C)Cc1cccc(C(F)(F)F)c1 ? -1

Hey, what did the test say about CCC1(C)CC(=O)NC1=O (stereo not given) ? -1

Test call for this molecule, please: OC1(c2ccccc2)CCNCC1 -1

Per the records of this test, what outcome belongs to C/C=C1\[C@H]2C=C(C)C[C@]1(N)c1ccc(=O)[nH]c1C2 ? -1

Returns: the outcome recorded for NS(=O)(=O)c1cc2c(cc1Cl)NC(CC1CCCC1)NS2(=O)=O (stereo not given) in this assay. -1

Short answer needed: outcome of this test for CCN1CC(CCN2CCOCC2)C(c2ccccc2)(c2ccccc2)C1=O (stereo not given) ? -1

Returns: the outcome recorded for C#C[C@]1(O)CC[C@H]2[C@@H]3CCc4cc(OC5CCCC5)ccc4[C@H]3CC[C@@]21C in this assay. 1

So what was the verdict on O=c1[nH]c(=O)n([C@H]2C[C@H](O)[C@@H](CO)O2)cc1F in this test? -1

Per the assay record, what outcome was assigned to C/C(=N\O)c1ccc(OCC(=O)N2CCCCC2)cc1 ? -1

Assay outcome for O=C(CCCl)NCc1ccccc1 : what was it? -1

Entry O=C(Nc1ccc(Cl)c(Cl)c1)C1CC1 : call = ? -1

###

Tested on: P93_24
measurement.description: qHTS profiling for inhibitors of Plasmodium falciparum proliferation (AID 504749); note: nearly all actives have a fitted effect of over 60% in size
study.conditions: P. falciparum in erythrocytes, SYBR Green DNA, 72 h; series mostly up to 28.7 µM
Results filed as inconclusive are left out. Calls of active or inactive are those of the source. Calls follow the shape of the dose curve; as a rule, active = well fitted inhibition curve with a large enough effect; inconclusive = small, poorly fitted or top-dose-only effect; inactive = flat fitted curve, though single readings scatter.
Could you please pick one outcome from this set? yes (1) (active), no (0) (inactive)

Would you mind telling me which call this test gave CCC(C)(C)c1ccc(O)cc1 ? no (0)

Per the assay record, what outcome was assigned to Clc1cccc(SC2CCNCC2)n1 ? no (0)

Test call for this molecule, please: C[C@](O)(CS(=O)(=O)c1ccc(F)cc1)C(=O)Nc1ccc(C#N)c(C(F)(F)F)c1 no (0)

Look up the recorded call for Nc1ccc([As](=O)(O)O)cc1 in this test. no (0)

Which result was noted for this molecule in the test: CNC(C)(C)Cc1ccccc1 no (0)

Short answer needed: outcome of this test for COC1CC(=C(c2cccs2)c2cccs2)C[N+](C)(C)C1 (stereo not given) ? yes (1)

Dear colleague, could you share the recorded outcome for Clc1ccc(C(c2ccc(Cl)cc2)C(Cl)(Cl)Cl)cc1 when you have a moment? no (0)

Answer briefly: the call reported for O=c1oc2ccccc2c(O)c1Cc1c(O)c2ccccc2oc1=O in this assay. no (0)

Answer briefly: the call reported for CCCCCCCCCC(=O)O[C@H]1CC[C@H]2[C@@H]3CCC4=CC(=O)CC[C@@H]4[C@H]3CC[C@]12C in this assay. no (0)

Which outcome was entered for the molecule O=C(O)CCCc1ccc(N(CCCl)CCCl)cc1 in this test? no (0)
